# Assay system: MAGL (Mus musculus)
# Construct: Proteomes (mouse brain membrane fraction or cell lysates); from tissue; host or cells: mouse brain membrane fraction (or cell lysates)
# Sequence (O35678 whole entry): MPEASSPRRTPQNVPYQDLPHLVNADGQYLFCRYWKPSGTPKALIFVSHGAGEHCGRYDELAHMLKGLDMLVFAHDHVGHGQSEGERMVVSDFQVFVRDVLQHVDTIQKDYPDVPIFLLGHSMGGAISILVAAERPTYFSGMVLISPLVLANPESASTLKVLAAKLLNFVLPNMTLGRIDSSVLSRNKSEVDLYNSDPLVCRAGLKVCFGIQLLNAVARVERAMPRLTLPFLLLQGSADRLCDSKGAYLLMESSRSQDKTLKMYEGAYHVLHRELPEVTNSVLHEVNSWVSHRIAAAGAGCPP
# Method summary: In vitro competitive activity-based protein profiling (mouse), MAGL gel band
# Type: biochemical
# Condition set: read-out: MAGL % inh. 1 μM

| Smiles structure | inhibition at 1 µM |
| --- | --- |
| CS(=O)(=O)Nc1ccn(C(=O)N2CCN(Cc3ccc(C(F)(F)F)c(N4C5CCC4COC5)c3)CC2)n1 | ≥ 75% |
| CS(=O)(=O)Nc1ccn(C(=O)N2CCC3(CCCN3Cc3cc(N4CCCC4)cc(C(F)(F)F)c3)CC2)n1 | ≥ 75% |
| CCN1CCN(c2cc(Cl)ccc2CN2CCCC23CCN(C(=O)n2ccc(NC(C)=O)n2)CC3)CC1 | ≥ 75% |
| CC(=O)Nc1ccn(C(=O)N2CCN(Cc3cc(OC4CCN(C5CC5)CC4)cc(C(F)(F)F)c3)CC2)n1 | ≥ 75% |
